Data provenance: PubChem BioAssay (NCI)

# Test system: K-562 leukemia
# assay method text: NCI tumour cell line growth inhibition, 48 h
Let's look at some compounds and their measured TGI.

O=C1OCC(c2ccc(O)c(O)c2)=C1c1cc(O)c(O)c(O)c1 | 46.1 µM
c1cc(-c2cscc2-c2ccsc2)cs1 | > 100 µM
CCN(CC)c1ccc(NC(C(=O)c2ccccc2)c2ccccc2)cc1 (configuration not stated) | 55.1 µM

Q) Given the entry `C[N+]1(C)CC=C(N2CCOCC2)CC1` , report its measured TGI.
A) > 10 µM

Q) Similarly, `Cc1c(/C=C2\CC/C(=C\c3[nH]c(C(=O)OC(C)(C)C)c(C)c3C)C2=O)[nH]c(C(=O)OC(C)(C)C)c1C` ?
A) > 100 µM

Q) Similarly, `O=c1[nH]cnc2c1nnn2CCCn1nnc2c(=O)[nH]cnc21` ?
A) > 100 µM

Q) Similarly, COC(=O)OC[C@H]1O[C@@H](n2cc(C)c(=O)[nH]c2=O)CC1OC(=O)OC (some centres not stated) ?
A) > 100 µM

Q) Similarly, `COc1cc(OC)cc(N2CCC(c3c(N)nc(N)nc3Cl)CC2)c1` ?
A) > 100 µM

Q) Similarly, COC(=O)OCC1OC(N2C(=O)NC(=O)C(I)C2N=[N+]=[N-])CC1OC(=O)OC (configuration not stated) ?
A) > 100 µM

Q) Similarly, `COc1ccc(/C=C2/CN(C(=O)c3ccccc3F)C/C(=C\c3ccc(OC)cc3)C2=O)cc1` ?
A) > 100 µM

Q) Similarly, `C=C/C(C)=C/[C@H](C)C(=O)C[C@H](O)CC1CC(=O)NC(=O)C1` ?
A) > 100 µM

Q) Similarly, `O=C(Cn1ccnc1[N+](=O)[O-])N(CCO)CCO` ?
A) > 1250 µM

Q) Similarly, CC(C)(C)C1CC[C@H]2c3c([nH]c4ccc(Br)cc34)[C@H]3C(=O)N(c4ccccc4)C(=O)[C@H]3[C@H]2C1 (some centres not stated) ?
A) > 100 µM

Q) Similarly, COc1ccc2c(c1)Oc1nc(N)c(C#N)c(N)c1C2Sc1ccc(SC)cc1 (configuration not stated) ?
A) 10.3 µM

Q) Similarly, OCC1SC(n2cnc3cncnc32)C(O)C1O (configuration not stated) ?
A) > 100 µM

Q) Similarly, COC(=O)c1ccc(CN2CCc3c([nH]c4ccccc34)C2CO)o1 (configuration not stated) ?
A) > 10 µM

Q) Similarly, N=C(N)/N=C(/C=C/c1ccccc1)CC1OC(=O)c2ccccc21 (configuration not stated) ?
A) > 100 µM

Q) Similarly, CCOC(=O)C(NCc1ccccc1)(NC(=O)c1ccccc1)C(F)(F)F (configuration not stated) ?
A) > 100 µM

Q) Similarly, `Cc1c(C)c(C)c(-n2c(=O)n(C)c(=O)n2C(C)(C)C)c(C)c1C` ?
A) > 100 µM

Q) Similarly, COc1ccc(C2SCC(=O)N2N=C2NC(=O)CC(=O)N2)cc1 (configuration not stated) ?
A) > 100 µM

Q) Similarly, `Cc1cccc(C)c1NC(=O)CCC(=O)NNC(=O)c1cc(O)c2ccccc2c1` ?
A) > 100 µM

Q) Similarly, `CC1(C)CCc2c(cc3c(c2O)CCC(C)(C)O3)O1` ?
A) > 100 µM
